Assay: Primary qHTS for delayed death inhibitors of the malarial parasite plastid, 48 hour incubation
Conditions: P. falciparum luciferase growth in erythrocytes; series mostly up to 28.7 µM
The campaign covered roughly 310,000 compounds. About 18,000 (5.8%) were called active. Inconclusive results (about 22%) are left out. The call rests on the fitted dose curve; in most records, active means well fitted inhibition curve with a large enough effect; inconclusive means small, poorly fitted or top-dose-only effect, or another doubt; inactive means no such curve, though single readings can be large or run the other way. The entries come from a sample that favours actives as a whole.
Choose the fitting class; nothing outside Yes (active), No (inactive) is accepted.

- compound: "CC1(C)NC(=O)N(CC(=O)Nc2cc(C(F)(F)F)cc(C(F)(F)F)c2)C1=O"
  qualitative-label: "No"

Input line: Answer briefly: the call reported for CC1CCCCN1C(=S)NCc1ccccc1 (configuration not stated) in this assay.
Output line: No

Input line: Answer briefly: the call reported for `O=C1NCCn2nc3ccccc3c21` in this assay.
Output line: No

Input line: Answer briefly: the call reported for `COc1ccccc1CC(=O)Nc1ccc(S(=O)(=O)N2CCCC2)cc1` in this assay.
Output line: No

Input line: Answer briefly: the call reported for `S=C(NCCc1ccccc1)N1CCCCC1` in this assay.
Output line: No

Input line: Answer briefly: the call reported for `COc1ccc(NC(=O)c2cccc(Cl)c2)c[n+]1[O-]` in this assay.
Output line: No

Input line: Answer briefly: the call reported for `O=S(=O)(c1ccccc1)N1CCC(c2ccccc2)CC1` in this assay.
Output line: No

Input line: Answer briefly: the call reported for `C/C=C/C(=O)OCc1csc(CC(=O)Nc2ccccc2C)n1` in this assay.
Output line: No

Input line: Answer briefly: the call reported for S=C(Nc1cccc(Br)c1)N1CCn2cccc2C1c1cccnc1 (configuration not stated) in this assay.
Output line: Yes

---

Assay: Primary qHTS for delayed death inhibitors of the malarial parasite plastid, 48 hour incubation
Details: P. falciparum luciferase growth in erythrocytes; series mostly up to 28.7 µM
Screen size: about 310,000 compounds; about 18,000 (5.8%) were called active. About 22% were inconclusive and are not listed. The call rests on the fitted dose curve; in most records, active means well fitted inhibition curve with a large enough effect; inconclusive means small, poorly fitted or top-dose-only effect, or another doubt; inactive means no such curve, though single readings can be large or run the other way. For the sample, actives were picked, then their nearest neighbours and some compounds at random.
Choose the fitting class; nothing outside 1 (active), 0 (inactive) is accepted.

Check out these entries, answers already filled in.
- molecule: "Cc1ccc(NC(=O)NC(=O)c2ccccc2)cc1F"
  qualitative-label: 0
- molecule: "COc1cc2ccccc2cc1C(=O)Nc1ccc(NC(=O)c2cccs2)cc1"
  qualitative-label: 1
- molecule: "CCc1nc2nc(C)c(NS(=O)(=O)c3ccc4c(c3)CCCC4)c(=O)n2[nH]1"
  qualitative-label: 0
- molecule: "Cc1ccc(OCc2nc3ccccc3n2C)cc1"
  qualitative-label: 0
- molecule: "O=S(=O)(Nc1ccccc1)c1ccc(NS(=O)(=O)c2cccs2)cc1"
  qualitative-label: 0

Input line: Answer briefly: the call reported for Cc1cc(C)cc(NC(=S)NC2CC3CCCC(C2)N3Cc2cccs2)c1 (stereo not drawn) in this assay.
Output line: 1

Input line: Answer briefly: the call reported for `c1ccc2c(c1)CSc1sccc1C2=C1CCNCC1` in this assay.
Output line: 1

---

Assay: Primary qHTS for delayed death inhibitors of the malarial parasite plastid, 48 hour incubation
Conditions: P. falciparum luciferase growth in erythrocytes; series mostly up to 28.7 µM
From the text: The goal of this screen is to discover new antimalarial compounds that act by inhibiting the development of the apicoplast in the malarial parasite Plasmodium falciparum. […] We have developed a cell-based assay that measures parasite growth based on the expression of an integrated copy of a firefly luciferase reporter. […] Growth inhibition is detected by a decrease in luciferase activity. […]
About 18,000 (5.8%) of roughly 310,000 compounds were called active. Inconclusive results (about 22%) are left out. Calls follow the shape of the dose curve; as a rule, active = well fitted inhibition curve with a large enough effect; inconclusive = small, poorly fitted or top-dose-only effect, or another doubt; inactive = no such curve, though single readings can be large or run the other way. What follows is part of a selection rich in actives, with near analogues and random picks from the rest.
Choose the fitting class; nothing outside 1 for active, 0 for inactive is accepted.

Check out these entries, answers already filled in.
- compound: "Cc1cccc(NC(=O)c2sc3nc4c(c(-c5ccco5)c3c2N)CCC4)c1"
  qualitative-label: 1
- compound: "Cc1cccc(NC(=O)c2sc3nc(N4CCOCC4)c4c(c3c2N)CCCC4)c1"
  qualitative-label: 0
- compound: "O=C(c1ccc(Br)o1)N1CCN(CCOc2ccccc2)CC1"
  qualitative-label: 0
- compound: "O=C(Cc1ccccc1)Nc1ccc(C(=O)Nc2ccccc2C(=O)O)cc1"
  qualitative-label: 0
- compound: "C=CCN1CN(S(=O)(=O)c2ccc(OC)cc2)c2nc3ccccc3nc21"
  qualitative-label: 0

Moving on to another molecule below.
Input line: Answer briefly: the call reported for `NC(=O)COc1ccccc1C(=O)NC12CC3CC(CC(C3)C1)C2` in this assay.
Output line: 0

---

Test: Primary qHTS for delayed death inhibitors of the malarial parasite plastid, 48 hour incubation
Conditions: P. falciparum luciferase growth in erythrocytes; series mostly up to 28.7 µM
The whole screen tested about 310,000 compounds, of which about 18,000 (5.8%) were called active. About 22% were inconclusive and are not listed. Calls follow the shape of the dose curve; as a rule, active = well fitted inhibition curve with a large enough effect; inconclusive = small, poorly fitted or top-dose-only effect, or another doubt; inactive = no such curve, though single readings can be large or run the other way. The full list was thinned out, with actives kept by preference.
Choose the fitting class; nothing outside active, inactive is accepted.

Check out these entries, answers already filled in.
- molecule: "CCOC(CNC(=O)C1CCN(S(=O)(=O)c2ccc3nc4c(c(C(=O)O)c3c2)CC(C)CC4)CC1)OCC (stereo unspecified)"
  qualitative-label: "inactive"
- molecule: "Cn1nc(-c2ccccc2)c2cc([N+](=O)[O-])ccc21"
  qualitative-label: "inactive"

Input line: Answer briefly: the call reported for `COc1ccc(C(=O)NCC(=O)N/N=C/c2cccnc2)cc1` in this assay.
Output line: inactive

Input line: Answer briefly: the call reported for `O=C(CCc1ccccc1)Nc1cccc(-c2nnc(-c3ccco3)o2)c1` in this assay.
Output line: active

Input line: Answer briefly: the call reported for `COCCNc1ncnc2c1nc1n2CCCC1` in this assay.
Output line: inactive

Input line: Answer briefly: the call reported for `COc1cc(OC)cc(C(=O)NNC(=O)CCOc2ccccc2OC)c1` in this assay.
Output line: inactive

---

Assay: Primary qHTS for delayed death inhibitors of the malarial parasite plastid, 48 hour incubation
Settings: P. falciparum luciferase growth in erythrocytes; series mostly up to 28.7 µM
Hit rate of the full screen: of about 310,000 compounds, about 18,000 (5.8%) were called active. Another 22% or so got no clear call; they are omitted. Calls follow the shape of the dose curve; as a rule, active = well fitted inhibition curve with a large enough effect; inconclusive = small, poorly fitted or top-dose-only effect, or another doubt; inactive = no such curve, though single readings can be large or run the other way. The sample as a whole holds a higher share of actives than the screen did.
Choose the fitting class; nothing outside active, inactive is accepted.

Check out these entries, answers already filled in.
- molecule: "COc1ccccc1CN(C)C(=O)c1cc2ccccc2o1"
  qualitative-label: "inactive"
- molecule: "CC[C@]1([C@H]2O[C@@H]([C@@H]3O[C@](O)(CO)[C@@H](C)C[C@H]3C)C[C@H]2C)CC[C@@H]([C@]2(C)CC[C@@]3(C[C@@H](O)[C@@H](C)[C@@H]([C@H](C)[C@H](OC)[C@H](C)C(=O)O)O3)O2)O1"
  qualitative-label: "active"
- molecule: "CCOC(=O)Cc1csc(SCC(=O)Nc2ccc(C)cc2F)n1"
  qualitative-label: "inactive"

Input line: Answer briefly: the call reported for Cc1ccc(S(=O)(=O)CC(=O)NC(C)c2ccccc2)cc1 (centres undefined) in this assay.
Output line: inactive

---

Assay: Primary qHTS for delayed death inhibitors of the malarial parasite plastid, 48 hour incubation; further: potency means the concentration at half of the fitted maximal effect
Conditions: P. falciparum luciferase growth in erythrocytes; series mostly up to 28.7 µM
In all, about 310,000 compounds went through this assay and about 18,000 (5.8%) were called active. Roughly 22% stayed inconclusive and do not appear here. What follows is part of a selection rich in actives, with near analogues and random picks from the rest.
reported-metric: Potency

- compound: "Cc1sc2ncnc(N3CCC(C(=O)Nc4nc5ccc(Cl)cc5s4)CC3)c2c1C"
  reported-metric: "Potency"
  result-value: "inactive"
- compound: "Cc1cc(C)c2c(=O)[nH]c(SCC(=O)Nc3ccc(Br)cc3)nc2n1"
  reported-metric: "Potency"
  result-value: "inactive"
- compound: "CCCc1cc(=O)oc2c(C)c(OC(C)C(=O)NCC(O)c3ccccc3)ccc12 (stereo unspecified)"
  reported-metric: "Potency"
  result-value: "inactive"
- compound: "O=C(O)[C@@H](S)[C@H](S)C(=O)O"
  reported-metric: "Potency"
  result-value: "4.26 µM (active)"
- compound: "O=C(NNC(=O)C1CCN(c2ncccn2)CC1)c1ccccc1"
  reported-metric: "Potency"
  result-value: "inactive"
- compound: "O=C(Nc1ccccc1-c1nc2ccccc2[nH]c1=O)c1cccs1"
  reported-metric: "Potency"
  result-value: "inactive"
- compound: "COC(=O)Cn1c(O)c(N=NC(=O)OC)c2ccccc21"
  reported-metric: "Potency"
  result-value: "inactive"
- compound: "CCn1c2ccccc2c2cc(NC(=O)COC(=O)c3cc(S(=O)(=O)N4CCCCC4)ccc3Cl)ccc21"
  reported-metric: "Potency"
  result-value: "inactive"
- compound: "CCCc1cc(=O)oc2c(C)c(O)c(CN3CCCCC3)cc12"
  reported-metric: "Potency"
  result-value: "1.65 µM (active)"
- compound: "Cc1sc2ncnc(N3CCC(C(=O)NNC(=O)c4ccc(F)cc4)CC3)c2c1C"
  reported-metric: "Potency"
  result-value: "11.7 µM (active)"

Potency measured on `Cc1sc2ncnc(N3CCC(C(=O)Nc4ccc(F)cc4Cl)CC3)c2c1C` = 11.7 µM (active)

Attribution: PubChem BioAssay AID504832
